Data provenance: ChEMBL document CHEMBL1201862

# Tested on: SF-268
# Test: NCI tumour cell line growth inhibition, 48 h
Active and inactive are the calls of the source. Cut-off read from the data, not from the text of the source: active = GI50 up to about 1.1 µM and inactive = higher.
Measurement Name: GI50

> print(dat)
                                   compound  measurement.name             reported
1  COC1(c2ccccc2)N=C(S)NN=C1c1ccccc1 (centres undefined)              GI50   37.2 µM (inactive)
2  O=[N+]([O-])c1ccc(OP(=O)(O)OCC2OC(CP(=O)(O)O)C(O)C2O)cc1 (centres undefined)              GI50  > 100 µM (inactive)
3  NC1CCCCC1.O=P(O)(O)C(CSc1ccccc1)P(=O)(O)O              GI50  > 100 µM (inactive)
4               CSc1nc(SC)c2c(C#N)n[nH]c2n1              GI50  > 100 µM (inactive)

----------
# Test system: DU-145
# Test: NCI tumour cell line growth inhibition, 48 h
The source made the active and inactive calls. No stated cut-off is given here; in the data, active = GI50 up to about 1.1 µM and inactive = higher.
Outcomes: active, inactive

> print(dat)
                                    molecule  system.name     class
 1  CC(C)(C)[Si](C)(C)OCc1cccc(OCCOc2cccc(CO[Si](C)(C)C(C)(C)C)c2[N+](=O)[O-])c1[N+](=O)[O-]       DU-145  inactive
 2  Oc1cc(-c2cccc(OCc3ccccc3)c2)nc2cc3c(cc12)OCO3       DU-145    active
 3  COC(=O)C(Cc1ccccc1)NC(=O)c1ccc(CNC(=S)NCc2cccc(CNC(=S)NCc3ccccc3)c2)cc1 (stereo not drawn)       DU-145  inactive
 4  CCN1C(=O)c2ccccc2C1(O)c1ccc(Cl)cc1 (stereo not drawn)       DU-145  inactive
 5  Cc1ccc(S(=O)(=O)SC/C=C\CSS(=O)(=O)c2ccc(C)cc2)cc1       DU-145  inactive
 6  O=C(CC(=O)N1N=C(c2ccccc2)C(/N=N/c2ccc(S(=O)(=O)CCOS(=O)(=O)O)cc2)C1=O)Nc1ccc(Cl)cc1 (stereo not drawn)       DU-145  inactive
 7     COc1ccc2c(Cl)cc(NC(=S)Nc3ccccc3)nc2c1       DU-145  inactive
 8  CC1CNC(c2ccc(CN3CCC(CCCC4CCN(Cc5ccc(C6=NC(C)CN6)cc5)CC4)CC3)cc2)=N1 (stereo not drawn)       DU-145  inactive
 9  N#CCCN(CCC#N)c1ccc(C(/N=N/c2ccccc2)=N\c2ccccc2)cc1       DU-145  inactive
10  Oc1c(OCc2nnc(CCCCCCCCc3nnc(COc4ccc5ccccc5c4O)n3Nc3ccccc3)n2Nc2ccccc2)ccc2ccccc12       DU-145  inactive
11    Cc1c2c(c(C)c3c[n+](C)ccc13)Oc1ccccc1O2       DU-145  inactive
12  CCOC(=O)C(NCc1cccc(C(F)(F)F)c1)(NC(=O)c1ccccc1)C(F)(F)F (stereo not drawn)       DU-145  inactive
13  COc1cc2cc(C(=O)N3CC(CCl)c4ccc(N(C)C)cc43)[nH]c2c(OC)c1OC (stereo not drawn)       DU-145    active

----------
# Tested on: HOP-62
# Test: NCI tumour cell line growth inhibition, 48 h
Calls of active or inactive are those of the source. Rule as the data show it: active = GI50 up to about 1.1 µM and inactive = higher.

Molecule	GI50
O=C1C2=Cc3ccccc3OC2(O)Oc2cc(O)ccc21 (centres undefined)	> 100 µM (inactive)
C[N+]1(c2ccccc2)C=C(c2ccccc2)SC1=S (centres undefined)	> 100 µM (inactive)
CCc1oc2ccccc2c1C(=O)c1cc(Br)c(O)c(Br)c1 [BENZBROMARONE]	34.3 µM (inactive)
CC1=CC(=C(c2ccc(N)c(C)c2)c2ccc(N)c(C)c2)C=CC1=N	2.79 µM (inactive)
NC(=O)c1ccc(C(=O)Nc2ccc([As](=O)(O)O)cc2)cc1	> 100 µM (inactive)
NC1CCCCC1.O=P(O)(O)C(CSc1ccccc1)P(=O)(O)O	> 100 µM (inactive)
CC(C)=C=CC(C)(C)NS(=O)(=O)NC(C)(C)C=C=C(C)C	> 100 µM (inactive)
CN(C)Cc1cc(C(=O)/C=C/c2ccc([N+](=O)[O-])cc2)cc(CN(C)C)c1O	3.72 µM (inactive)
Oc1cc(-c2cccc(OCc3ccccc3)c2)nc2cc3c(cc12)OCO3	0.44 µM (active)
CCOc1cc(/C=N\O)cc(/C=N/O)c1O	37.1 µM (inactive)
COCCOCCOC1=CC(=O)c2c(O)ccc(O)c2C1=O	1.71 µM (inactive)
CC(C)c1cc(C(C)C)c(S(=O)(=O)NN)c(C(C)C)c1	> 100 µM (inactive)
C(=N\c1ccc(-c2nc3ccccc3s2)cc1)/c1ccco1	30.4 µM (inactive)
CCOC(=O)CSc1c(C(=O)OCC)c(=O)n(-c2ccccc2)c(=S)n1-c1ccccc1	> 100 µM (inactive)
Cn1c(=O)c2c(nc(N3CCOCC3)n2CCCNCC(O)c2ccc(O)c(O)c2)n(C)c1=O (centres undefined)	> 100 µM (inactive)
C=CCc1cc(-c2cc(CC=C)c(O)c(CN(CCCl)CCCl)c2)cc(CN(CCCl)CCCl)c1O	14 µM (inactive)
CCCCCCCCCCCCCC(=O)CBr	21.5 µM (inactive)
COc1ccc(C(=O)C(CC2C(=O)NC(=O)NC2=O)c2ccc(OC)cc2)cc1 (centres undefined)	> 100 µM (inactive)
COC1/C=C/C(C)C(C(C)C(OC)C(C)CCC(=O)C(C)C(C/C=C/N(C)C=O)OC)OC(=O)/C=C/C=C(\C)CC(OC)CC2=CC(=O)O[C@H](C2)C(C)C(OC)CC(OC)/C=C/C(C)C(OC)C1 (some centres undefined)	< 0.005 µM (active)
